- Test target: PI3K δ (Homo sapiens)
- Construct: (contract assay)
- Sequence (O00329 whole entry): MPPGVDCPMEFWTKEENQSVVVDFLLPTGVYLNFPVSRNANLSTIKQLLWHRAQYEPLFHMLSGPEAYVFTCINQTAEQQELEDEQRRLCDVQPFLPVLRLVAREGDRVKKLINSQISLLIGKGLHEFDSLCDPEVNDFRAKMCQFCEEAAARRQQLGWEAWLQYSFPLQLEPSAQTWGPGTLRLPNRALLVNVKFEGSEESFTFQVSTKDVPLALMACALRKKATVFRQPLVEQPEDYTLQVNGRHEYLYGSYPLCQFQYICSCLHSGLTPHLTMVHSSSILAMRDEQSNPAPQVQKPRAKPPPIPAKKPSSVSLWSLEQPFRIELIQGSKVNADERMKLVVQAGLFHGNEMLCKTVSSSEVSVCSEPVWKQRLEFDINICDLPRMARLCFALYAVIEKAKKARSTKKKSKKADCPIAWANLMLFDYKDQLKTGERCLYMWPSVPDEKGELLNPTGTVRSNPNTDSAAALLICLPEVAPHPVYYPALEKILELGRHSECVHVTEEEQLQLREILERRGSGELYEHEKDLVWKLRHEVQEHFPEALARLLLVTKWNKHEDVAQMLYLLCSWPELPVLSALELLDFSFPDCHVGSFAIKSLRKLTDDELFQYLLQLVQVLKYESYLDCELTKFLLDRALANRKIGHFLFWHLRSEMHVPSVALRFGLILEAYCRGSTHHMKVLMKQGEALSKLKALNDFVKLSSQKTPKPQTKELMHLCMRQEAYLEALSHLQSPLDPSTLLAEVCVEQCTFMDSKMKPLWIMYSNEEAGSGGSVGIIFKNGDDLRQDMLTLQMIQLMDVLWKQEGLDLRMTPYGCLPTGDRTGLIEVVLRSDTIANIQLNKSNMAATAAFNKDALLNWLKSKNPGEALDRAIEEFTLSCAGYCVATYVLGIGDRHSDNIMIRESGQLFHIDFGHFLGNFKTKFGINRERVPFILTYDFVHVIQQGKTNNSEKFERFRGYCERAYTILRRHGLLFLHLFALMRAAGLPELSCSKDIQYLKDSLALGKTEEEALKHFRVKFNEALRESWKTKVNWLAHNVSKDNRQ
- Sequence (P27986 whole entry partner): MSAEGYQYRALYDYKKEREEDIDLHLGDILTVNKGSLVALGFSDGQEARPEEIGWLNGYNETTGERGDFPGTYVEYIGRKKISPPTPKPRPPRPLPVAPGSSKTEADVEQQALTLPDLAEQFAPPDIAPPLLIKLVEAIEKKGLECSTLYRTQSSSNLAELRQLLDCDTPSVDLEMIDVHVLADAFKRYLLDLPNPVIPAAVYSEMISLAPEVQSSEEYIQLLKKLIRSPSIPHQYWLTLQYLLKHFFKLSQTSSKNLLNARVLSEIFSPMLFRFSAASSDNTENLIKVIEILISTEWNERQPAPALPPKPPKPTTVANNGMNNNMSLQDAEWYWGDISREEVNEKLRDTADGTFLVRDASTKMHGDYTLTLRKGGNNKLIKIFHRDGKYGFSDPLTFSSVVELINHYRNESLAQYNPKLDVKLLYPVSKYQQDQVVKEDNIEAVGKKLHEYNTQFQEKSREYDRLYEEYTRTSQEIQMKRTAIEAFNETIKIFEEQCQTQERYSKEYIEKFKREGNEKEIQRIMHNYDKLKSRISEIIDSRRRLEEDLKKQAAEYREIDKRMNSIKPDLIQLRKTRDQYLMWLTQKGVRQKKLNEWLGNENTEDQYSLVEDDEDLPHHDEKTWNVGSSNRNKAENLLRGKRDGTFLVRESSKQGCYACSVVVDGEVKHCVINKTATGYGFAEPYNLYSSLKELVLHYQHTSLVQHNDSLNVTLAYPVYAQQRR
- Assay summary: PI3K delta inhibition (Thermo Fisher Scientific)
- Condition notes: 10-point curve; read-out: Target IC50 PI3K δ
pIC50: −log10 of the molar value.
Measured metric: pIC50

Below, 5 molecules whose answers are already recorded.
1. C=CC(=O)N1CCOc2ccc(-c3csc4c(=O)cc(N5CCNCC5)oc34)cc21; 5.00 to 6.00
2. C=CC(=O)N1CCOc2ccc(-c3csc4c(=O)cc(N5CCOCC5)oc34)cc21; > 6.00
3. C=CC(=O)N1CCOc2ccc(-c3csc4c(=O)cc(N5CCN(C(=O)OC(C)(C)C)CC5)oc34)cc21; 5.00 to 6.00
4. C=CC(=O)Nc1cccc(-c2csc3c(=O)cc(N4CCOCC4)oc23)c1; > 6.00
5. O=c1cc(N2CCOCC2)oc2c(-c3ccc4c(c3)OCCO4)csc12 [Compound 0, reference compound]; > 6.00

Now consider the entry below.
Asked: Look up pIC50: C=CS(=O)(=O)Nc1cccc(-c2csc3c(=O)cc(N4CCOCC4)oc23)c1
Given back: > 6.00

All values here come from patent US20210300939A1.
